# EXPERIMENTAL TARGET: human recombinant COX2 (hCOX2) (UniProt P35354)
# Sequence (P35354 1-604): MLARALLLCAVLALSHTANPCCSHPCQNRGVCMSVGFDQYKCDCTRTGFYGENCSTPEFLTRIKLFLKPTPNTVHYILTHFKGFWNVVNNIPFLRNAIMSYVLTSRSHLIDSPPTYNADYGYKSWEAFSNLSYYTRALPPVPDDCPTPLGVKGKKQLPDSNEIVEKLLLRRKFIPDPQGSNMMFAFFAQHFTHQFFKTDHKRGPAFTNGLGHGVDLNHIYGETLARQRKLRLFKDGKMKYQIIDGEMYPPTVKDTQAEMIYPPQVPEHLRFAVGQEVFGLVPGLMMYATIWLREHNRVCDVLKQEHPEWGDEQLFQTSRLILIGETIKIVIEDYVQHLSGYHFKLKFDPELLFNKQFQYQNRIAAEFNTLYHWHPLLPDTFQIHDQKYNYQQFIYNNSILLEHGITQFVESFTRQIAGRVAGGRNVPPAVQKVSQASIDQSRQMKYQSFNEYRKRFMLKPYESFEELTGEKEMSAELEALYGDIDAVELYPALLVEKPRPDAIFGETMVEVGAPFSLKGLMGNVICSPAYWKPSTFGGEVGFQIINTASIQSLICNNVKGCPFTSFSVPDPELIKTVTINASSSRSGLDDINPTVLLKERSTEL
# ASSAY: LCMS-based COX2 enzymatic inhibition assay (PGE2 quantification)
# Type: biochemical
# Set-up: COX2 2 minutes pge2/pge2d4 area ratio Avg; other: 2 minutes; readout pge2/pge2d4 area ratio; average; COX2 2 minutes pge2/pge2d4 area ratio Avg; LLE; average LLE; COX2 2 minutes pge2 area (counts) Avg; readout pge2 area (counts); other: 2 min; "ovine COX2 (oCOX2), human recombinant COX2 (hCOX2)"
# CONDITIONS: 2 minutes; readout pge2/pge2d4 area ratio; average LLE
Each entry below lists one item and its recorded COX2 2 minutes pge2/pge2d4 area ratio Avg. LLE value.
Answer with a bare number; do not write a unit.

Example molecules with recorded COX2 2 minutes pge2/pge2d4 area ratio Avg. LLE:
COc1ncc(OCc2ccoc2)nc1-c1ccc(S(C)(=O)=O)cc1	5.719
CS(=O)(=O)c1ccc(-c2cncc(NC[C@H]3CCCO3)n2)cc1	4.417
CSc1ccc(-c2cncc(NCc3cccs3)n2)cc1	3.898

## Task I am curious: what COX2 2 minutes pge2/pge2d4 area ratio Avg. LLE value has been reported for C[C@H](Oc1cncc(-c2ccc(S(C)(=O)=O)cc2)n1)c1cccs1 (single isomer, unassigned) ?
## Result 4.852

## Task I am curious: what COX2 2 minutes pge2/pge2d4 area ratio Avg. LLE value has been reported for `Cc1cccc(COc2cncc(-c3ccc(S(C)(=O)=O)cc3)n2)c1` ?
## Result 2.514

## Task I am curious: what COX2 2 minutes pge2/pge2d4 area ratio Avg. LLE value has been reported for `CS(=O)(=O)c1ccc(-c2cncc(OCc3ccccc3)n2)cc1` ?
## Result 4.174

* * *

# EXPERIMENTAL TARGET: human recombinant COX2 (hCOX2) (UniProt P35354)
# ASSAY: LCMS-based COX2 enzymatic inhibition assay (PGE2 quantification)
# Type: biochemical
# Design: COX2 2 minutes pge2/pge2d4 area ratio Avg; other: 2 minutes; readout pge2/pge2d4 area ratio; average; COX2 2 minutes pge2/pge2d4 area ratio Avg; LLE; average LLE; COX2 2 minutes pge2 area (counts) Avg; readout pge2 area (counts); other: 2 min; "ovine COX2 (oCOX2), human recombinant COX2 (hCOX2)"
# CONDITIONS: 2 minutes; readout pge2 area (counts); average LLE
Each entry below lists one item and its recorded COX2 2 minutes pge2 area (counts) Avg. LLE value.
Answer with a bare number; do not write a unit.

Example compounds with recorded COX2 2 minutes pge2 area (counts) Avg. LLE:
CS(=O)(=O)c1ccc(-c2ccc(F)c(NCc3ccoc3)n2)cc1 [Compound 33]	4.796
Cc1ccc(CNc2cccc(-c3ccc(S(C)(=O)=O)cc3)n2)o1 [Compound 117]	4.185
COc1ncc(NCc2ccns2)nc1-c1ccc(S(C)(=O)=O)cc1 [Compound 102]	5.572
COc1cc(NCc2cccs2)nc(-c2ccc(S(C)(=O)=O)cc2)c1 [Compound 50]	4.341
C[C@@H](Nc1cccc(-c2ccc(S(C)(=O)=O)cc2)n1)c1ccco1 (single isomer, unassigned) [Compound 274]	1.914

## Task I am curious: what COX2 2 minutes pge2 area (counts) Avg. LLE value has been reported for CS(=O)(=O)c1ccc(-c2cnc(C(N)=O)c(NCc3cccs3)n2)cc1 [Compound 219] ?
## Result 4.669

## Task I am curious: what COX2 2 minutes pge2 area (counts) Avg. LLE value has been reported for CS(=O)(=O)c1ccc(-c2cnc3cnn(Cc4cccs4)c3n2)cc1 [Compound 94] ?
## Result 4.818

* * *

# EXPERIMENTAL TARGET: human recombinant COX2 (hCOX2) (UniProt P35354)
# Sequence (P35354 1-604): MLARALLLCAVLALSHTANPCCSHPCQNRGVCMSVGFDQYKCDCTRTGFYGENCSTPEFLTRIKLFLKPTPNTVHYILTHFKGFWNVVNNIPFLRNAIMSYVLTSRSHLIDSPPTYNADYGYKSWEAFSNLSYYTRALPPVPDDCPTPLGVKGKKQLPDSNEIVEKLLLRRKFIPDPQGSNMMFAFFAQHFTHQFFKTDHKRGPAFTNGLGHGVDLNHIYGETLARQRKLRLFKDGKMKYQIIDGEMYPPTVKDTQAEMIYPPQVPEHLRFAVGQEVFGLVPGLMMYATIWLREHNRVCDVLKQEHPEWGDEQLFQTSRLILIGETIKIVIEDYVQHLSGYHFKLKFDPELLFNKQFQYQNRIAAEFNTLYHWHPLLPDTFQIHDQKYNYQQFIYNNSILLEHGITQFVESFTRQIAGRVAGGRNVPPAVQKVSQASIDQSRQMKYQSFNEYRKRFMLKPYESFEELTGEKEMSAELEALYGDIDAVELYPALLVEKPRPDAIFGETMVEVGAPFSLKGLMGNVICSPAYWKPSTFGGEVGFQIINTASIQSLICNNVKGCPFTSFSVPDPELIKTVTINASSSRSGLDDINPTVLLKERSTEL
# ASSAY: LCMS-based COX2 enzymatic inhibition assay (PGE2 quantification)
# Assay type: biochemical
# Set-up: COX2 2 minutes pge2/pge2d4 area ratio Avg; other: 2 minutes; readout pge2/pge2d4 area ratio; average; COX2 2 minutes pge2/pge2d4 area ratio Avg; LLE; average LLE; COX2 2 minutes pge2 area (counts) Avg; readout pge2 area (counts); other: 2 min; "ovine COX2 (oCOX2), human recombinant COX2 (hCOX2)"
# CONDITIONS: 2 minutes; readout pge2 area (counts); average; read-out: COX2 2 minutes pge2 area (counts) Avg. IC50
Note to self: class labels come from recorded IC50, ranges listed here: Low (below 100 nM), Mid (100 nM to below 500 nM), High (500 nM or more)

Known results for compounds:
COc1ccc(-c2ccc(S(C)(=O)=O)nc2)nc1NCc1cccs1	Mid
COc1ncc(NCc2nccs2)nc1-c1ccc(S(C)(=O)=O)cc1	Low
CSc1ccc(-c2cncc(OCc3cccs3)n2)cc1	High
COCCOc1ncc(NCc2cccs2)nc1-c1ccc(S(C)(=O)=O)cc1	Mid
Cn1ccc(CNc2cccc(-c3ccc(S(C)(=O)=O)cc3)n2)n1	High

## Task Bin? `CS(=O)(=O)c1ccc(-c2cccc(NCc3ccoc3)n2)cn1`
## Result Mid

## Task Bin? `CS(=O)(=O)c1ccc(-c2cccc(NCc3ccco3)n2)cc1`
## Result Low

## Task Bin? `CS(=O)(=O)c1ccc(-c2cncc(Oc3ccccc3)n2)cc1`
## Result High

## Task Bin? C[S+]([O-])c1ccc(-c2cncc(NCc3cccs3)n2)cc1 (stereo not shown)
## Result Mid

## Task Bin? `COc1ccc(NCc2cccs2)nc1-c1ccc(S(C)(=O)=O)cc1`
## Result Low

* * *

# EXPERIMENTAL TARGET: human recombinant COX2 (hCOX2)
# ASSAY: LCMS-based COX2 enzymatic inhibition assay (PGE2 quantification)
# Assay type: biochemical
# Design: COX2 2 minutes pge2/pge2d4 area ratio Avg; other: 2 minutes; readout pge2/pge2d4 area ratio; average; COX2 2 minutes pge2/pge2d4 area ratio Avg; LLE; average LLE; COX2 2 minutes pge2 area (counts) Avg; readout pge2 area (counts); other: 2 min; "ovine COX2 (oCOX2), human recombinant COX2 (hCOX2)"
# CONDITIONS: 2 minutes; readout pge2 area (counts); average LLE
Each entry below lists one item and its recorded COX2 2 minutes pge2 area (counts) Avg. LLE value.
Answer with a bare number; do not write a unit.

Example compounds with recorded COX2 2 minutes pge2 area (counts) Avg. LLE:
COc1ccc(NCc2cccs2)nc1-c1ccc(S(C)(=O)=O)cc1	4.644
CS(=O)(=O)c1ccc(-c2cncc(NC3CCCCC3)n2)cc1	3.961

## Task Give human recombinant COX2 (hCOX2) COX2 2 minutes pge2 area (counts) Avg. LLE for `CS(=O)(=O)c1ccc(-c2cncc(N3Cc4cccnc4C3)n2)cc1`
## Result 4.414

## Task Give human recombinant COX2 (hCOX2) COX2 2 minutes pge2 area (counts) Avg. LLE for `Cc1ccc(COc2cncc(-c3ccc(S(C)(=O)=O)cc3)n2)cc1`
## Result 2.514

## Task Give human recombinant COX2 (hCOX2) COX2 2 minutes pge2 area (counts) Avg. LLE for `CS(=O)(=O)c1ccc(-c2cncc(NCc3ncc[nH]3)n2)cc1`
## Result 4.334

Where these numbers come from: patent US20220348590A1
